TARGET DESC: Estrogen receptor (Homo sapiens) + Estrogen receptor beta (Homo sapiens) (UniProt P03372+Q92731)
Sequence (P03372 whole entry, looked up, the tested form may be a part): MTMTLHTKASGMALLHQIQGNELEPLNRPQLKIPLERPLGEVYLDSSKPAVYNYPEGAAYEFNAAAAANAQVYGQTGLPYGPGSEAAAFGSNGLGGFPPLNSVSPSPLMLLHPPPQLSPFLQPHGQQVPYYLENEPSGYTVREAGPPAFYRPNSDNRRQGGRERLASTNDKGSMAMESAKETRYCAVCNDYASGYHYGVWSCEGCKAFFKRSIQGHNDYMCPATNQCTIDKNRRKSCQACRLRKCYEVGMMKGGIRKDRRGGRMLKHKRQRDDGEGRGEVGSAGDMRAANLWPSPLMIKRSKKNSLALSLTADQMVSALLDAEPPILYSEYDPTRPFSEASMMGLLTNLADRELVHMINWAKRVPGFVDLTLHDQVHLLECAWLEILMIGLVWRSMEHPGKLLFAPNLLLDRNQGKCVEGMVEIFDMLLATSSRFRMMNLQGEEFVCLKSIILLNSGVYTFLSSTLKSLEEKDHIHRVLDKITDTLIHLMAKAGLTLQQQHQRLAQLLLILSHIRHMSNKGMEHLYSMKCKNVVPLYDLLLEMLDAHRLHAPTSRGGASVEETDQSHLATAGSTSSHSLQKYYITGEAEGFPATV
Sequence (Q92731 whole entry, looked up, the tested form may be a part): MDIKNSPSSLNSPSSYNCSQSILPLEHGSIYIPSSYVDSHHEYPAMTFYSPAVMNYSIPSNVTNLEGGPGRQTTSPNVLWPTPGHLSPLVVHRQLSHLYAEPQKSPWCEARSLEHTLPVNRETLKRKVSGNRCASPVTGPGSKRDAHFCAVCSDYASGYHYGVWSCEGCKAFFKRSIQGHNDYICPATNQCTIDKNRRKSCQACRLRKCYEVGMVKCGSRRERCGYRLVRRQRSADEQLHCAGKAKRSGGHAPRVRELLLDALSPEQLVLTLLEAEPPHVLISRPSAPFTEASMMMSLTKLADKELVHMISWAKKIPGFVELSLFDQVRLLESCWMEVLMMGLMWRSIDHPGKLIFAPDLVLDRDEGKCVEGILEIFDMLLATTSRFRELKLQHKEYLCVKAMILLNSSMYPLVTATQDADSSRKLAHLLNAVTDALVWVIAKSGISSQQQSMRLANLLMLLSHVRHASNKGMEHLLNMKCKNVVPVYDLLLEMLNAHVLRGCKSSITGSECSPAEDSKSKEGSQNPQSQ
TEST METHOD NOTES: OT_ER_ERaERb_1440: Odyssey Thera (OT) 24-hour HEK293T Protein-Complementation Assay for Estrogen Receptor-alpha/-beta Homodimer (AID 2283356);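 also: heteromer of ER alpha and ER beta binding domains; hits raise reporter fluorescence and both agonists and antagonists give an increase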
Records with an inconclusive call do not appear. Calls of active or inactive are those of the source. The calls were made as follows: active = hit-call score of the fitted dose curve at least 0.9, where 1 is the maximum; inconclusive = response in the unintended direction; inactive = score below 0.9.
EXPERIMENTAL READOUT: outcome

# MOLECULE, ASSAY VALUE
measured = [
    ("Nc1c(Cl)c(F)nc(OCC(=O)O)c1Cl", "inactive"),
    ("CCOc1nc(C(Cl)(Cl)Cl)ns1", "inactive"),
    ("O=C(Nc1ccccc1-c1ccc(Cl)cc1)c1cccnc1Cl", "inactive"),
    ("Nc1c(Cl)c(Cl)nc(C(=O)O)c1Cl", "inactive"),
    ("COP(=S)(OC)Oc1ccc([N+](=O)[O-])c(C)c1", "inactive"),
    ("CCN(CC)C(=O)C(C)Oc1cccc2ccccc12 (configuration not stated)", "inactive"),
    ("CCCCC(O)(Cn1cncn1)c1ccc(Cl)cc1Cl (configuration not stated)", "inactive"),
]

Just for reference, PubChem BioAssay (EPA / NIEHS) is where these values come from.
